Molecular target: 5-lipoxygenase (5-LO) (Homo sapiens, UniProt P09917)
Sequence (P09917 whole entry): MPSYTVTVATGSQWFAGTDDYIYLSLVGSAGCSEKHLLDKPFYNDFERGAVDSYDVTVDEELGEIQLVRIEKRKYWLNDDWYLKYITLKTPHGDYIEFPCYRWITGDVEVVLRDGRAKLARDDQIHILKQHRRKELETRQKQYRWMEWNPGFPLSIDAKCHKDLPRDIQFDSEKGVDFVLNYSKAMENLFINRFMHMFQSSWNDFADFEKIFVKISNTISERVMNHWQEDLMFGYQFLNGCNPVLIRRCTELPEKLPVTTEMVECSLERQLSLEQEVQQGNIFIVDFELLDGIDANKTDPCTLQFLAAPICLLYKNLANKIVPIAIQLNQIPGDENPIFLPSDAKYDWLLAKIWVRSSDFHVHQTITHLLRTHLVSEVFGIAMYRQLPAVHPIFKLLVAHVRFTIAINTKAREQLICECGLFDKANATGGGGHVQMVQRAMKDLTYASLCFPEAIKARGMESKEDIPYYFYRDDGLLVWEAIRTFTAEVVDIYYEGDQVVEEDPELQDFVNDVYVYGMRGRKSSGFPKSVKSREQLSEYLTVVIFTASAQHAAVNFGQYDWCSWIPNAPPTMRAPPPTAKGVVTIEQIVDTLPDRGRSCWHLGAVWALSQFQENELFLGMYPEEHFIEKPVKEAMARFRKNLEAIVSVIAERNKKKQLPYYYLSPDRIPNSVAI
Sequence (P20292 whole entry partner): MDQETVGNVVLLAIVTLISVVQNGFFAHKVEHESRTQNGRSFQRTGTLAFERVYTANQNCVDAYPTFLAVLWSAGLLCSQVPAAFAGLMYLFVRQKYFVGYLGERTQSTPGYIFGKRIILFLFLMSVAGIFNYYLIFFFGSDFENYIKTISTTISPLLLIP
Test: 5-LO product biosynthesis
pIC50: −log10 of the molar value.
measured.parameter: pIC50

[[record]]
compound = "O=C(/C=C/c1ccc(O)c(O)c1)OCCc1ccccc1 [compound 1, Caffeic acid phenethyl ester]"
measured_parameter = "pIC50"
number = 6.00

